Reported inhibition at 20 µM values for the following compounds.
# Tested on: CSES2 human embryonic stem cells
# protocolNotes: CellTiter-Glo luminescent cell viability screen, CSES2
# Type: cell-based
# conditionNotes: at 20 μM, pluripotent stem cells
Express your answer in %, writing the number without its unit.

| compound | measuredOn | readoutName | unitInfo | readoutNumber |
| --- | --- | --- | --- | --- |
| O=C(NCCc1ccc(O)cc1)c1ccc(N2CCCCC2)cc1 | CSES2 human embryonic stem cells | inhibition at 20 µM | % | 84.7 |
| CCN(CC)C(=O)C(=O)c1c(-c2ccccc2)[nH]c2c1sc1ccccc12 | CSES2 human embryonic stem cells | inhibition at 20 µM | % | 93 |
| O=C(NNc1ccccc1)c1ccncc1 [PluriSIn #1, isonicotinic acid N′-phenylhydrazide] | CSES2 human embryonic stem cells | inhibition at 20 µM | % | 92.1 |
| Nc1cc(N)cc(COc2ccc(-c3ccccc3)cc2)c1 | CSES2 human embryonic stem cells | inhibition at 20 µM | % | 98 |
| O=C(NN(C(=O)c1ccccc1)c1ccccc1)c1ccc(Cl)cc1 | CSES2 human embryonic stem cells | inhibition at 20 µM | % | 90.1 |

For the compound Cc1ccc(NNC(=O)C(O)(c2ccccc2)c2cccs2)cc1 (stereo not drawn) , what inhibition at 20 µM is on record?
94.8

// query: "O=S(=O)(NNc1ccccc1)c1ccc2ccccc2c1"
88.2

And what about the compound "CCCCCC(=O)NNc1ccc(Cl)cc1" ?
95

// same read-out, input: "O=C1C=CC=C1/C=C/C(=N\Nc1ccccc1)c1ccccc1"
101

====

# protocolNotes: CellTiter-Glo counter-screen, hepatocytes
# Type: cell-based
# conditionNotes: human, human embryonic stem cell-derived hepatocytes (Cellartis), read-out: Inhibition (%) ES-derived hepatocytes
readoutName: inhibition at 20 µM (%)
Write down the numeric answer in % and omit the unit.

# annotated cases, reported inhibition at 20 µM shown
| smilesData | inhibition at 20 µM [%] |
| --- | --- |
| O=C(Nc1ccccc1)n1cc(F)c(=O)[nH]c1=O | 13.2 |
| O=S(=O)(NNc1ccccc1)c1ccc2ccccc2c1 | 0.3 |
| Nc1cc(N)cc(COc2ccc(-c3ccccc3)cc2)c1 | 2.8 |
| CCCCCC(=O)NNc1ccc(Cl)cc1 | 3.6 |
| C/C(=N\O)NNc1ccc(Cl)cc1 | 6.1 |

Moving on to the next compound.
Query (compound): "O=C(NCCc1ccc(O)cc1)c1ccc(N2CCCCC2)cc1" ; field requested: inhibition at 20 µM
10.5

====

# System: H9 human embryonic stem cells
# protocolNotes: CellTiter-Glo luminescent cell viability screen, H9
# Type: cell-based
# conditionNotes: pluripotent stem cells
readoutName: inhibition at 20 µM (%)
Response body: numeric value in %, unit text excluded.

| compound | inhibition at 20 µM (%) |
| --- | --- |
| O=C1C=CC=C1/C=C/C(=N\Nc1ccccc1)c1ccccc1 [PluriSIn #13] | 101 |
| C/C(=N\O)NNc1ccc(Cl)cc1 [PluriSIn #9] | 101 |
| Cc1oc2ccccc2c1/C=N/Nc1ccccc1 [PluriSIn #8] | 85.5 |
| O=C(NCCc1ccc(O)cc1)c1ccc(N2CCCCC2)cc1 [PluriSIn #4] | 74.1 |

Which inhibition at 20 µM value belongs to O=C(Nc1ccccc1)n1cc(F)c(=O)[nH]c1=O [PluriSIn #2] ?
65.4

Now this one: O=C(NN(C(=O)c1ccccc1)c1ccccc1)c1ccc(Cl)cc1 [PluriSIn #14]
79.4

Same again, this time with Nc1cc(N)cc(COc2ccc(-c3ccccc3)cc2)c1 [PluriSIn #3]
110

Same thing, different compound: CCN(CC)C(=O)C(=O)c1c(-c2ccccc2)[nH]c2c1sc1ccccc12 [PluriSIn #12]
95.8

Request: C(=N\C1CCC(CC2CCCCC2)CC1)/OC1CCOC1 (stereo not shown) [PluriSIn #15]
79.5

// next record CCCCCC(=O)NNc1ccc(Cl)cc1 [PluriSIn #10]
88

====

# protocolNotes: CellTiter-Glo counter-screen, hepatocytes
# Format: cell-based
# conditionNotes: human, human embryonic stem cell-derived hepatocytes (Cellartis), read-out: Inhibition (%) ES-derived hepatocytes
# Experimental: Human embryonic stem cell-derived hepatocytes were obtained from Cellartis (Goteborg, Sweden), and handled according to the manufacturer's instructions; 696 confirmed hits from the confirmation screen were tested for profiling in a panel of 13 different cell types, using the same screening protocol described above (except in the case of embryonic stem cell-derived neural stem cells (NSCs) and mesenchymal stem cells (MSCs), for which the protocol is described below). […]
# maps each entry to its inhibition at 20 µM
Please state the figure in %; there is no need to write the unit.

The cases that follow already have their inhibition at 20 µM on record.
| compound | readoutNumber |
| --- | --- |
| O=C1C=CC=C1/C=C/C(=N\Nc1ccccc1)c1ccccc1 [PluriSIn #13] | 13.4 |
| CCN(CC)C(=O)C(=O)c1c(-c2ccccc2)[nH]c2c1sc1ccccc12 [PluriSIn #12] | -3.9 |

Okay, now this compound:
Param item = O=C(NNc1ccccc1)c1ccncc1 [PluriSIn #1, isonicotinic acid N′-phenylhydrazide] ; retrieve measured inhibition at 20 µM.
16.2

====

Reported inhibition at 20 µM is given for each of the following compounds.
# Test system: H9 human embryonic stem cells
# protocolNotes: CellTiter-Glo luminescent cell viability screen, H9
# Format: cell-based
# conditionNotes: pluripotent stem cells
# Protocol: 5,000 CSES2 cells were plated in 50 μl per well of mTeSR1 medium into black 384-well clear-bottom plates (Falcon BD) pre-coated with Matrigel™ using WellMate cell dispenser (Matrix, Hudson, N.H.). 24 hours after plating, medium was replaced with 25 μl of fresh medium and 25 μl of 40 μM compound medium solutions in 1% DMSO from the intermediate compound dilution plates. […] Cell viability was determined 24 hours after compound treatment using CellTiter-Glo® luminescent cell viability assay kits. […]
// units = %; emit number, no label

Completed entries (count: 4):
| compound | measuredOn | readoutNumber |
| --- | --- | --- |
| O=S(=O)(NNc1ccccc1)c1ccc2ccccc2c1 [PluriSIn #5] | H9 human embryonic stem cells | 82.2 |
| CCOC(=O)CN1CC(=O)/C(=C\NNc2ccccc2)C1=O [PluriSIn #11] | H9 human embryonic stem cells | 94 |
| O=C(NNc1ccccc1)c1ccncc1 [PluriSIn #1, isonicotinic acid N′-phenylhydrazide] | H9 human embryonic stem cells | 88.6 |
| CC(=O)Oc1ccc(/C=C/c2ccc3c(c2)CCN3C)cc1 [PluriSIn #7] | H9 human embryonic stem cells | 109 |

Below: the item to evaluate.
Could you tell me which inhibition at 20 µM is on file for Cc1ccc(NNC(=O)C(O)(c2ccccc2)c2cccs2)cc1 (centres unmarked) [PluriSIn #6] ?
90.1

====

# Tested on: CSES2-SO2/3 ES-derived endodermal progenitors
# protocolNotes: CellTiter-Glo counter-screen, endodermal progenitors
# Type: cell-based
# conditionNotes: Homo sapiens; at 20 μM
readoutName: inhibition at 20 µM (%)
Note: unit % is implicit; provide only the numeric part.

Check out these entries, answers already filled in.
| compound | unitInfo | readoutNumber |
| --- | --- | --- |
| Cc1oc2ccccc2c1/C=N/Nc1ccccc1 | % | 0 |
| CCCCCC(=O)NNc1ccc(Cl)cc1 | % | 33.8 |
| O=C(NCCc1ccc(O)cc1)c1ccc(N2CCCCC2)cc1 | % | -1.1 |
| CC(=O)Oc1ccc(/C=C/c2ccc3c(c2)CCN3C)cc1 | % | 24.8 |
| O=S(=O)(NNc1ccccc1)c1ccc2ccccc2c1 | % | 12.9 |
| O=C(NN(C(=O)c1ccccc1)c1ccccc1)c1ccc(Cl)cc1 | % | 18.8 |
| O=C1C=CC=C1/C=C/C(=N\Nc1ccccc1)c1ccccc1 | % | 15.8 |
| CCOC(=O)CN1CC(=O)/C(=C\NNc2ccccc2)C1=O | % | 4.3 |

Query inhibition at 20 µM on CSES2-SO2/3 ES-derived endodermal progenitors for "C/C(=N\O)NNc1ccc(Cl)cc1"
11.9

Consider next the compound Cc1ccc(NNC(=O)C(O)(c2ccccc2)c2cccs2)cc1 (stereo not shown) in the same way.
-2.5

====

# protocolNotes: Pilot cytotoxicity screen with 50 commercially available compounds
# Format: cell-based, human
# conditionNotes: human; after 24 hours, at a concentration of 1-3 μM; read-out: decrease in cell viability
readoutName: cytotoxicity at 24 h

If you can, please state the reported cytotoxicity at 24 h value of C[C@@H]1C[C@@H]([C@H](O)CC2CC(=O)NC(=O)C2)C(=O)[C@@H](C)C1 [cycloheximide] .
~50%

====

Reported inhibition at 12.5 µM values for a set of compounds
# Test system: ES-derived mesenchymal stem cells
# protocolNotes: CellTiter-Glo counter-screen, mesenchymal stem cells
# Assay type: cell-based
# conditionNotes: Homo sapiens, at 20 μM (table title)
I only need the number, in %, no unit after it.

Known results for compounds:
| compound | unitInfo | inhibition at 12.5 µM |
| --- | --- | --- |
| O=C(NCCc1ccc(O)cc1)c1ccc(N2CCCCC2)cc1 | % | -8.1 |
| O=C(NN(C(=O)c1ccccc1)c1ccccc1)c1ccc(Cl)cc1 | % | -1.5 |
| CCCCCC(=O)NNc1ccc(Cl)cc1 | % | 3.9 |
| Cc1ccc(NNC(=O)C(O)(c2ccccc2)c2cccs2)cc1 (centres unmarked) | % | -19.7 |

Find the measured inhibition at 12.5 µM: item "O=S(=O)(NNc1ccccc1)c1ccc2ccccc2c1" , target or system ES-derived mesenchymal stem cells.
6.4
